# Experiment: Oral bioavailability in mouse at 50 mg/kg
# Format: ADME, organism-based
# Particulars: in vivo
Readout: bioavailability (%)
Give bare numbers, in %.

In plain terms, CN1CCN(C(=O)c2ccc(-c3cn4c(-c5ccc(C#N)cc5)cnc4cn3)cc2)CC1 has a documented bioavailability of 48

###

Hi there, I'd appreciate the recorded half-life for every entry that follows.
# Experiment: Half life in CD-1 mouse at 5 mg/kg, po administered via gavage as single dose by LC-MS/MS analysis
# Assay type: ADME, organism-based
# Particulars: in vivo
One number for each entry, in h.

- N#Cc1ccc(-c2cnc3ccc(-c4ccc(C(=O)N5CCOCC5)cc4)cn23)cc1 [TINODASERTIB]: 1.77

As a next step, examine the molecule that follows.
In plain terms, N#Cc1ccc(-c2cnc3ccc(-c4ccc(C(=O)N5CCOCC5)cc4)nn23)cc1 has a documented half-life of 2.14

###

Hi there, I'd appreciate the recorded half-life at 1 µM for every entry that follows.
# Experiment: in vitro
# Particulars: rat, liver microsomes
# Description: Half life in rat liver microsomes at 1 uM in presence of NADPH by LC-MS/MS analysis

* N#Cc1ccc(-c2cnc3ccc(-c4ccc(C(=O)N5CCOCC5)cc4)nn23)cc1 | > 1 h

As a next step, examine the compound that follows.
In plain terms, N#Cc1ccc(-c2cnc3ccc(-c4ccc(C(=O)N5CCOCC5)cc4)cn23)cc1 has a documented half-life at 1 µM of > 1 h

###

# Experiment: Thermodynamic solubility of the compound at pH 4 to 7.4 pION buffer after 18 hrs by UV spectrophotometric analysis
# Type: physicochemical
# Particulars: read-out: Therm_solubility
Classification field: Y = solubility thermodynamic at 18 h at or over 100 µg/mL; N = solubility thermodynamic at 18 h under 100 µg/mL.

Examples with answers:
* CN1CCN(C(=O)c2ccc(-c3ccc4ncc(-c5ccc(C#N)cc5)n4c3)cc2)CC1 | Y
* CN1CCN(C(=O)c2ccc(-c3cn4c(-c5ccc(C(F)(F)F)cc5)cnc4cn3)cc2)CC1 | N

API: the following record is the query input.
Request: # bool: solubility thermodynamic at 18 h of CC(=O)N1CCN(C(=O)c2ccc(-c3cn4c(-c5ccc(O)cc5)cnc4cn3)cc2)CC1 >= 100 µg/mL
Response: Y

###

# Experiment: Half life in CD-1 mouse at 1 mg/kg, iv administered as single dose by LC-MS/MS analysis
# Type: ADME, organism-based
# Particulars: in vivo
Hi there, I'd appreciate the recorded half-life for every entry that follows.
Give bare numbers, in h.

- N#Cc1ccc(-c2cnc3ccc(-c4ccc(C(=O)N5CCOCC5)cc4)nn23)cc1: 2.32

As a next step, examine the compound that follows.
In plain terms, N#Cc1ccc(-c2cnc3ccc(-c4ccc(C(=O)N5CCOCC5)cc4)cn23)cc1 has a documented half-life of 1.7

###

# Assayed Target: MAP kinase-interacting serine/threonine-protein kinase 1/2 (Homo sapiens, UniProt Q9HBH9+Q9BUB5)
# Experiment: Inhibition of MNK1/2 in human HeLa cells assessed as decrease in eIF4E phosphorylation at Ser209 after 2 hrs by AlphaScreen assay
# Assay type: cell-based
Hi there, I'd appreciate the recorded IC50 for every entry that follows.
Give bare numbers, in nM.

Worked cases, IC50 given:
- CN1CCN(C(=O)c2ccc(-c3cn4c(-c5cccc(O)c5)cnc4cn3)cc2)CC1: 1330
- CN1CCN(C(=O)c2ccc(-c3cn4c(-c5ccccc5)cnc4cn3)cc2)CC1: 1920
- CN1CCN(C(=O)c2ccc(-c3cn4c(-c5ccc(C(F)(F)F)cc5)cnc4cn3)cc2)CC1: 1990
- N#Cc1ccc(-c2cnc3cnc(-c4ccc(C(=O)N5CCOCC5)cc4)cn23)cc1: 748
- CN1CCN(C(=O)c2ccc(-c3cn4c(-c5ccc(Cl)cc5)cnc4cn3)cc2)CC1: 759

Required: IC50, one value per compound below.
1. CN1CCN(C(=O)c2ccc(-c3cn4c(-c5ccc(C(F)F)cc5)cnc4cn3)cc2)CC1
2. CN1CCN(C(=O)c2ccc(-c3cn4c(-c5ccc(O)cc5)cnc4cn3)cc2)CC1
3. NC(=O)c1ccc(-c2cn3c(-c4ccc(O)cc4)cnc3cn2)cc1
4. N#Cc1ccc(-c2cnc3ccc(-c4ccc(C(=O)N5CCOCC5)cc4)nn23)cc1
5. N#Cc1ccc(-c2cnc3ccc(-c4ccc(C(=O)N5CCNCC5)cc4)nn23)cc1
6. CN1CCN(C(=O)c2ccc(-c3ccc4ncc(-c5ccc(C#N)cc5)n4n3)cc2)CC1
7. Cc1ccc(-c2cnc3cnc(-c4ccc(C(=O)N5CCN(C)CC5)cc4)cn23)cc1

Response:
1: 1630; 2: 189; 3: 1080; 4: 421; 5: 220; 6: 326; 7: 1210

Required: IC50, one value per compound below.
1. O=C(c1ccc(-c2cn3c(-c4ccc(O)cc4)cnc3cn2)cc1)N1CCOCC1
2. CN(C)C1CCN(C(=O)c2ccc(-c3cn4c(-c5ccc(C#N)cc5)cnc4cn3)cc2)CC1

Response:
[130, 640]
